Where these numbers come from: the RNAGym collection of RNA variant scans (doi:10.1021/acssynbio.7b00057)

Hi there, I'd appreciate the recorded aptazyme ON/OFF ratio for every entry that follows.
B1: Pistol ribozyme (parent)
chain: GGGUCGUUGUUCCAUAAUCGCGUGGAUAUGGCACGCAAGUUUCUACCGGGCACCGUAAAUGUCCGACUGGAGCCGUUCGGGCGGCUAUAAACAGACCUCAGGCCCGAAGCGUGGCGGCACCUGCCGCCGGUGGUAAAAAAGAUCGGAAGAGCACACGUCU

# Variants of: B1
# TEST_DETAILS: aptazyme ON/OFF ratio, guanine; higher = stronger switching; co-transcriptional cleavage with and without guanine
Could you keep your reply to the number by itself?

input: Form field: reported aptazyme ON/OFF ratio of U8C G9C U11A C12A C13G
output: 1.12

input: Find the recorded aptazyme ON/OFF ratio belonging to U7C U8G G9C U10C U11A C12G C13A and report it.
output: 1.1

input: // aptazyme ON/OFF ratio lookup, key: U7C U8C U10C U11C C13U
output: 1.38

input: Which aptazyme ON/OFF ratio reading was recorded for the variant U7C U8C G9U U10A U11A C12A C13A ?
output: 1.12

input: // returns reported aptazyme ON/OFF ratio for input U7A U10G C12U C13G
output: 1.12

input: Need aptazyme ON/OFF ratio of U7A U8C U10A C12A C13U , thanks.
output: 1.22

input: Tell me the measured aptazyme ON/OFF ratio of U8A G9U U10A C12G C13U , please.
output: 1.33

input: Look up aptazyme ON/OFF ratio for this variant: U7A U8A G9U U10G U11C C12G C13G
output: 1.14

input: Name the recorded aptazyme ON/OFF ratio for U7G U8A G9U U10G U11C C13A .
output: 1.06

input: Fill in: aptazyme ON/OFF ratio of U8C G9A U10C C13U is ___
output: 1.66

input: What does the data say about its aptazyme ON/OFF ratio? Entry: U7C U8C G9A U10G U11G C12G C13G
output: 1.14

input: Can you share its aptazyme ON/OFF ratio? I mean this variant: U7C G9A C12A C13U
output: 1.25

input: Quick one: aptazyme ON/OFF ratio for U7C U8G G9A U10C U11G C13G ?
output: 1.12

input: Returns the measured aptazyme ON/OFF ratio for the input variant. Input: U7C U8C G9C U10A U11A C12U C13U
output: 1.17

input: Consider the variant U7C U8G G9U U10G U11C C12A C13G and give its measured aptazyme ON/OFF ratio.
output: 1.06

input: Request the reported aptazyme ON/OFF ratio associated with U7G U10C U11G C12U C13A
output: 1.11

input: Need aptazyme ON/OFF ratio of U7A U8A U10G C12U C13A , thanks.
output: 1.51

input: What measured aptazyme ON/OFF ratio goes with U7G G9A U11G C12U C13A ?
output: 1.09

input: Query (variant): U7A G9U U10C U11A C12G ; field requested: aptazyme ON/OFF ratio
output: 1.23

input: Can you look up the measured aptazyme ON/OFF ratio of U7G U8C U10C U11G C12A C13G for me?
output: 1.22

input: Please report the recorded aptazyme ON/OFF ratio for U7A U8A G9A U10A U11G C12G C13G .
output: 1.32

input: Entry U7A U8G G9U U10A U11A C13A has what aptazyme ON/OFF ratio?
output: 1.48

input: # query: aptazyme ON/OFF ratio of entry G9C U11G C12G C13A
output: 1.24

input: Find the recorded aptazyme ON/OFF ratio belonging to U7C U8C G9C U10C C13U and report it.
output: 2.85

input: Name the reported aptazyme ON/OFF ratio value associated with the variant U7A G9C U10G U11A C13G
output: 1.06

input: So what's the measured aptazyme ON/OFF ratio for this one? U7A U8A G9U U11A C12U C13U
output: 1.28

input: For the variant G9A C12A , what aptazyme ON/OFF ratio is on record?
output: 1.92

input: What does the data say about its aptazyme ON/OFF ratio? Entry: U7C G9C U10G U11A C12G C13U
output: 1.09

input: What measured aptazyme ON/OFF ratio goes with U7C U8A U10C U11C C12G C13U ?
output: 1.09

input: Using the record for U8A G9U U10A U11G C12A C13A , report its aptazyme ON/OFF ratio.
output: 1.01

input: // lookup aptazyme ON/OFF ratio for U7A G9C U10A
output: 1.38

input: Which measured aptazyme ON/OFF ratio value corresponds to U7A U8C G9C U10C U11C C12G ?
output: 1.03

input: What does the record list as aptazyme ON/OFF ratio for U8C G9U U10C C13U ?
output: 1.27

input: Need aptazyme ON/OFF ratio, item U7C G9U U11G C12G
output: 1.18

input: // returns reported aptazyme ON/OFF ratio for input U8A U10A U11G C13U
output: 1.13

input: So what's the measured aptazyme ON/OFF ratio for this one? U8G U10A U11A C12U
output: 1.28

input: Record request: aptazyme ON/OFF ratio value, item U7C U8C G9C U10C U11C C12G C13G
output: 1.19
